Experiment: Substrate specificity of WNanoKAZ mutants, crude enzyme solution (Example 11)
Type: biochemical
Conditions: Int.
Procedure: DTT was added to the crude enzyme solution obtained in EXAMPLE 9 at a final concentration of 1 mM, and then allowed to stand in an ice-water bath over 8 hours or more. After 1 μL of the crude enzyme solution was added to 100 μL of 30 mM Tris-HCl (pH 7.6)-10 mM EDTA (Wako Pure Chemical Industries, Ltd.) containing 1 μg of coelenterazine (manufactured by JNC Corp.), a luminescence reaction was started. […] The maximum intensity of luminescence (Imax) was given as a relative luminescence activity (rlu). […]
MEASURE: Relative luminescence activity, f-CTZ, Int.

- MOLECULE: "WNanoKAZ: chimeric protein: positions 1-82 of native KAZ and 83-169 of nanoKAZ; SEQ ID NO: 6; I90V, P115E, Q124K, Y138I, N166R (protein, chimeric protein: positions 1-82 of native KAZ and 83-169 of nanoKAZ; I90V, P115E, Q124K, Y138I, N166R) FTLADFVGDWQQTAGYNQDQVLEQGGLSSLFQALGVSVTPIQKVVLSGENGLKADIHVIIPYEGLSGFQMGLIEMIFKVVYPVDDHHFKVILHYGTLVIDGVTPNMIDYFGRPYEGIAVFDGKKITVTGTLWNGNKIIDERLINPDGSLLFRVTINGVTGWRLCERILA"
  MEASURED: 32
- MOLECULE: "WNanoKAZ-K124Q: single amino acid-substituted WNanoKAZ mutant K124Q; SEQ ID NO: 12 (protein) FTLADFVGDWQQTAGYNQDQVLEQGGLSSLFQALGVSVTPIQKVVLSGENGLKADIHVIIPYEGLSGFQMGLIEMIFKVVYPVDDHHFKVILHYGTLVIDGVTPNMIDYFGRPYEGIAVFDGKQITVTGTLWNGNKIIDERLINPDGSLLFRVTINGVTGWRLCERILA"
  MEASURED: 40
- MOLECULE: "WNanoKAZ-R166N: single amino acid-substituted WNanoKAZ mutant R166N; SEQ ID NO: 16 (protein) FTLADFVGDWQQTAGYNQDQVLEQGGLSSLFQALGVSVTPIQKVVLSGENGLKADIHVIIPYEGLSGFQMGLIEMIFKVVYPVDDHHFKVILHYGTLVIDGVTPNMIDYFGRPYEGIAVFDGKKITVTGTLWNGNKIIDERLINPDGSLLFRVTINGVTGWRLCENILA"
  MEASURED: 27
- MOLECULE: "WNanoKAZ-I138Y: single amino acid-substituted WNanoKAZ mutant I138Y; SEQ ID NO: 14 (protein) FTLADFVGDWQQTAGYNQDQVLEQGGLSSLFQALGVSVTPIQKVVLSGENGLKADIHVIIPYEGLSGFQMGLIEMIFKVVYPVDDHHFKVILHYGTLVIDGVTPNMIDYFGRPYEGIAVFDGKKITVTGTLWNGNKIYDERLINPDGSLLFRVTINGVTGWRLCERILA"
  MEASURED: 18
- MOLECULE: "WNanoKAZ-E115P: WNanoKAZ with substitution of proline for glutamic acid at position 115; SEQ ID NO: 10 (protein) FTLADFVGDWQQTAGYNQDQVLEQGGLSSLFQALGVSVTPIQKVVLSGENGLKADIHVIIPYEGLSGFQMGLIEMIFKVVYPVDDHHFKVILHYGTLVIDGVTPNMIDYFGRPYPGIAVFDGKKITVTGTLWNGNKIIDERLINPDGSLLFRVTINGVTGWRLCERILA"
  MEASURED: 14
- MOLECULE: "WNanoKAZ-V90I: single amino acid-substituted WNanoKAZ mutant, valine 90 back to isoleucine; SEQ ID NO: 8 (protein) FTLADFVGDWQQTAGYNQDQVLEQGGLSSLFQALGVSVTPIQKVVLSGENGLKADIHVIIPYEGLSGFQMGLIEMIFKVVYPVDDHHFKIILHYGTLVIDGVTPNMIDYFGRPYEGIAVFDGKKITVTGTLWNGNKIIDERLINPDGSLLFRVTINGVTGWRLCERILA"
  MEASURED: 22
